// data source = patent US20250170248A1

Exercise: state measured DC50 for each of the compounds provided.
tested-target: SMARCA2 (Homo sapiens)
Sequence (P51531 whole entry): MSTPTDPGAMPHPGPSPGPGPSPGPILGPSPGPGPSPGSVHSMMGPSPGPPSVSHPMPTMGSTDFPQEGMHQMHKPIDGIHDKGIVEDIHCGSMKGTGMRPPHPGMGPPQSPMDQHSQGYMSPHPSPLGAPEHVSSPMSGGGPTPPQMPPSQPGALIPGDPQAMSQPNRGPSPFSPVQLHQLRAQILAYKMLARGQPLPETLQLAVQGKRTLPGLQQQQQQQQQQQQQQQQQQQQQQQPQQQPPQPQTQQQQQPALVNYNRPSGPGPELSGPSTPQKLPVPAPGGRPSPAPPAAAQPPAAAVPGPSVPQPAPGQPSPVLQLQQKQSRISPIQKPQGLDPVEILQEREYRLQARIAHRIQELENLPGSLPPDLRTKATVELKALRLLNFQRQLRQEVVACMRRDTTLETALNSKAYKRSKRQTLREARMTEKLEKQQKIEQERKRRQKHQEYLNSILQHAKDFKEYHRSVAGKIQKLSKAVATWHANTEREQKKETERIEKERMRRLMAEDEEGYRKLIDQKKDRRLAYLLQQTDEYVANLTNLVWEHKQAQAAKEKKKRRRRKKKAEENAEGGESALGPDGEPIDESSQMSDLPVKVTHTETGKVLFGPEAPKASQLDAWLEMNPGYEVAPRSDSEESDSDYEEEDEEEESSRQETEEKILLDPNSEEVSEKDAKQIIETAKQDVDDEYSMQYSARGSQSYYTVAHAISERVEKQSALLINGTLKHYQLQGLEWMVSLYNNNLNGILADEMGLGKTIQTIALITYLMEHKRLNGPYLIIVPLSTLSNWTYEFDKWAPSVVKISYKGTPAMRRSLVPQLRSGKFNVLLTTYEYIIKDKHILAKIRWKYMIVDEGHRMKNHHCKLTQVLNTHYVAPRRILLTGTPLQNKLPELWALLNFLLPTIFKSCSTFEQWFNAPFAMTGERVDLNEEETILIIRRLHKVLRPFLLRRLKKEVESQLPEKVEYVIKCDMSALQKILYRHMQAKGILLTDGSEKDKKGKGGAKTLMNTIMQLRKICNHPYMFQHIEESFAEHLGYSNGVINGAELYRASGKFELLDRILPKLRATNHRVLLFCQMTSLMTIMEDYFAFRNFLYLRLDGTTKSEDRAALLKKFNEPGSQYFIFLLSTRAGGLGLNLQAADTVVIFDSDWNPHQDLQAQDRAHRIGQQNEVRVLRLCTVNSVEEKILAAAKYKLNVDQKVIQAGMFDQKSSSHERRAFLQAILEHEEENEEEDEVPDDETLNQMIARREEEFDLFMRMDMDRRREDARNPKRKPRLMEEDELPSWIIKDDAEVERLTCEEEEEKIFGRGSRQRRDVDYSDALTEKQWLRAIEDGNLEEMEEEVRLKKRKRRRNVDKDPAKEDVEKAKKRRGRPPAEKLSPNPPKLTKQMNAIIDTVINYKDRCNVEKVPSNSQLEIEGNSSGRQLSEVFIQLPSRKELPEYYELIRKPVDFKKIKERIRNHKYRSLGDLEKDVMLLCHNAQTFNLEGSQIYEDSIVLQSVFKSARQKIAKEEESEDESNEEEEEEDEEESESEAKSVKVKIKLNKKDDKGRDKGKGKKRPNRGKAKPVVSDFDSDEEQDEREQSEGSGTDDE
test-summary: MSD SMARCA2 degradation in A549 cell line
Type: cell-based
applied-conditions: A549 cells, 24 h, read-out: SMARCA2 MSD A549 degradation 24 h: Average external-Abs DC50

compound	result
C#Cc1ccc(CNC(=O)[C@@H]2C[C@@H](O)CN2C(=O)[C@@H](NC(=O)N2CCN(C[C@@H]3CCN(c4cnc(N5CCc6[nH]c7nnc(-c8ccccc8O)cc7c6[C@H]5C)nc4)C3)CC2)C(C)(C)C)cc1 (single isomer, unassigned)	> 100 nM
C#Cc1ccc(CNC(=O)[C@@H]2C[C@@H](O)CN2C(=O)[C@@H](NC(=O)N2CC3(CC(N4CCC(c5cnc(N6CCc7[nH]c8nnc(-c9ccccc9O)cc8c7[C@H]6C)nc5)CC4)C3)C2)C(C)(C)CCO)c(Cl)c1 (single isomer, unassigned)	10 to 50 nM

For each listed entry, give its DC50.
1. C#Cc1ccc(CNC(=O)[C@@H]2C[C@@H](O)CN2C(=O)[C@@H](NC(=O)N2CCN(CC3CCN([C@H]4CC[C@H](N5CCN6c7cc(-c8ccccc8O)nnc7NC[C@H]6C5)CC4)CC3)CC2)C(C)(C)C)cc1
2. C#Cc1ccc(CNC(=O)[C@@H]2C[C@@H](O)CN2C(=O)[C@@H](NC(=O)N2CC3(CC(CN4CCC(N5CCC(N6CCc7[nH]c8nnc(-c9ccccc9O)cc8c7[C@H]6C)CC5)CC4)C3)C2)C(C)(C)C)cc1

1. > 100 nM
2. > 100 nM

====

tested-target: SMARCA2 (Homo sapiens)
test-summary: SMARCA2 Western blot degradation in MV4-11 cells
Assay type: cell-based
Parameters: SMARCA2/SMARCA4 protein degradation selectivity in MV4-11 cells; endogenous in cells; host or cells: MV4-11
applied-conditions: SMARCA2/4 selectivity, MV4-11 cells
assay-endpoint: Selectivity in MV411

molecule	result
C#Cc1cc(Cl)c(CNC(=O)[C@@H]2C[C@@H](O)CN2C(=O)[C@@H](NC(=O)[C@H]2CC3(C2)C[C@H](N2CCC(N4CCC(N5CCN6c7cc(-c8ccccc8O)nnc7NC[C@H]6C5)CC4)CC2)C3)C(C)(C)C)c(OC)c1 (single isomer, unassigned) [I-328]	D (D (<10 fold))
C#Cc1cc(Cl)c(CNC(=O)[C@@H]2C[C@@H](O)CN2C(=O)[C@@H](NC(=O)[C@H]2CC3(C2)C[C@H](N2CCC(N4CCC(N5CCN6c7cc(-c8ccccc8O)nnc7NC[C@H]6C5)CC4)CC2)C3)C(C)(C)C)c(OC)c1 (stereo partly shown) [I-329]	D (D (<10 fold))

====

tested-target: SMARCA2 (Homo sapiens)
test-summary: SMARCA2 Western blot degradation in MV4-11 cells
Type: cell-based
Design: SMARCA2/SMARCA4 protein degradation selectivity in MV4-11 cells; endogenous in cells; host or cells: MV4-11
applied-conditions: MV4-11 cells, 24 h; read-out: SMARCA2 MSD MV411 degradation 24 h: Mean external-Abs DC50
assay-endpoint: DC50

Example cases with answers are listed next.
compound	tested-target	result
C#Cc1ccc(CNC(=O)[C@@H]2C[C@@H](O)CN2C(=O)[C@@H](NC(=O)[C@H]2CC3(C2)C[C@H](N2CCC(N4CCC(N5CCN6c7cc(-c8ccccc8O)nnc7NC[C@H]6C5)CC4)CC2)C3)C(C)(C)CCO)cc1 (single isomer, unassigned) [I-365]	SMARCA2 (Homo sapiens)	1 to 10 nM
C#Cc1ccc([C@H](C)NC(=O)[C@@H]2C[C@@H](O)CN2C(=O)[C@@H](NC(=O)N2CC3(CC(N4CCC(c5cnc(N6CCc7[nH]c8nnc(-c9ccccc9O)cc8c7[C@H]6C)cn5)CC4)C3)C2)C(C)(C)C)cc1 [I-250]	SMARCA2 (Homo sapiens)	10 to 100 nM
C#Cc1ccc(CNC(=O)[C@@H]2C[C@@H](O)CN2C(=O)[C@@H](NC(=O)N2CCC(N3CC4(CC(N5CCC(N6CCc7[nH]c8nnc(-c9ccccc9O)cc8c7[C@H]6C)CC5)C4)C3)CC2)C(C)(C)C)cc1 [I-206]	SMARCA2 (Homo sapiens)	> 100 nM
Cc1ncsc1-c1ccc(CNC(=O)[C@@H]2C[C@@H](O)CN2C(=O)[C@@H](NC(=O)[C@H]2CCC3(CC2)C[C@H](N2CCN(c4cnc(N5CCc6[nH]c7nnc(-c8ccccc8O)cc7c6[C@H]5C)nc4)CC2)C3)C(C)(C)C)cc1 (single isomer, unassigned) [I-112]	SMARCA2 (Homo sapiens)	10 to 100 nM
C#Cc1ccc(CNC(=O)[C@@H]2C[C@@H](O)CN2C(=O)[C@@H](NC(=O)[C@H]2CCC3(CC2)C[C@H](N2CCC(N4CCC(N5CCN6c7cc(-c8ccccc8O)nnc7NC[C@H]6C5)CC4)CC2)C3)C(C)(C)C)c(F)c1 (some centres unmarked) [I-176]	SMARCA2 (Homo sapiens)	10 to 100 nM
Cn1nccc1-c1ccc(CNC(=O)[C@@H]2C[C@@H](O)CN2C(=O)[C@@H](NC(=O)[C@H]2CC[C@H](c3ccc(-c4cnc(N5CCN6c7cc(-c8ccccc8O)nnc7NC[C@H]6C5)nc4)cc3)CC2)C(C)(C)C)cc1 (single isomer, unassigned) [I-87]	SMARCA2 (Homo sapiens)	10 to 100 nM

For each listed entry, give its DC50.
1. C#Cc1ccc(CNC(=O)[C@@H]2C[C@@H](O)CN2C(=O)[C@@H](NC(=O)N2CC3(CC(N4CCC(c5cnc(N6CCc7[nH]c8nnc(-c9ccccc9O)cc8c7[C@H]6C)nc5)CC4)C3)C2)C(C)(C)CCN2CCN[C@@H](C(=O)O)C2)cc1 [I-342]
2. Cc1cc(F)ccc1C#CCNC(=O)[C@@H]1C[C@@H](O)CN1C(=O)[C@@H](NC(=O)[C@H]1CCC2(CC1)C[C@H](N1CCC(c3cnc(N4CCN5c6cc(-c7ccccc7O)nnc6NC[C@H]5C4)nc3)CC1)C2)C(C)(C)C (single isomer, unassigned) [I-106]
3. Cc1ncsc1-c1ccc(CNC(=O)[C@@H]2C[C@@H](O)CN2C(=O)[C@@H](NC(=O)[C@H]2CC3(CC[C@H](N4CCN(c5ccnc(N6CCc7[nH]c8nnc(-c9ccccc9O)cc8c7[C@H]6C)n5)CC4)CC3)C2)C(C)(C)C)cc1 (some centres unmarked) [I-80]
4. Cc1ncsc1-c1ccc(CNC(=O)[C@@H]2C[C@@H](O)CN2C(=O)[C@@H](NC(=O)C2(F)CC2)C(C)(C)C)c(O[C@H]2CC[C@@H](N3CCC(N4CCC(c5cnc(N6CCc7[nH]c8nnc(-c9ccccc9O)cc8c7[C@@H]6C)nc5)CC4)CC3)CC2)c1 (single isomer, unassigned) [I-48]
5. Cc1ncsc1-c1ccc(CNC(=O)[C@@H]2C[C@@H](O)CN2C(=O)C(c2cc(N3CC4(CCC(N5CCC(c6cnc(N7CCc8[nH]c9nnc(-c%10ccccc%10O)cc9c8[C@@H]7C)nc6)CC5)CC4)C3)no2)C(C)C)cc1 (single isomer, unassigned) [I-9]

1: > 100 nM; 2: > 100 nM; 3: < 1 nM; 4: 10 to 100 nM; 5: 1 to 10 nM

====

tested-target: SMARCA4 (Homo sapiens)
Construct: SMARCA2/SMARCA4 protein degradation selectivity in MV4-11 cells; endogenous in cells; host or cells: MV4-11
Sequence (P51532 whole entry): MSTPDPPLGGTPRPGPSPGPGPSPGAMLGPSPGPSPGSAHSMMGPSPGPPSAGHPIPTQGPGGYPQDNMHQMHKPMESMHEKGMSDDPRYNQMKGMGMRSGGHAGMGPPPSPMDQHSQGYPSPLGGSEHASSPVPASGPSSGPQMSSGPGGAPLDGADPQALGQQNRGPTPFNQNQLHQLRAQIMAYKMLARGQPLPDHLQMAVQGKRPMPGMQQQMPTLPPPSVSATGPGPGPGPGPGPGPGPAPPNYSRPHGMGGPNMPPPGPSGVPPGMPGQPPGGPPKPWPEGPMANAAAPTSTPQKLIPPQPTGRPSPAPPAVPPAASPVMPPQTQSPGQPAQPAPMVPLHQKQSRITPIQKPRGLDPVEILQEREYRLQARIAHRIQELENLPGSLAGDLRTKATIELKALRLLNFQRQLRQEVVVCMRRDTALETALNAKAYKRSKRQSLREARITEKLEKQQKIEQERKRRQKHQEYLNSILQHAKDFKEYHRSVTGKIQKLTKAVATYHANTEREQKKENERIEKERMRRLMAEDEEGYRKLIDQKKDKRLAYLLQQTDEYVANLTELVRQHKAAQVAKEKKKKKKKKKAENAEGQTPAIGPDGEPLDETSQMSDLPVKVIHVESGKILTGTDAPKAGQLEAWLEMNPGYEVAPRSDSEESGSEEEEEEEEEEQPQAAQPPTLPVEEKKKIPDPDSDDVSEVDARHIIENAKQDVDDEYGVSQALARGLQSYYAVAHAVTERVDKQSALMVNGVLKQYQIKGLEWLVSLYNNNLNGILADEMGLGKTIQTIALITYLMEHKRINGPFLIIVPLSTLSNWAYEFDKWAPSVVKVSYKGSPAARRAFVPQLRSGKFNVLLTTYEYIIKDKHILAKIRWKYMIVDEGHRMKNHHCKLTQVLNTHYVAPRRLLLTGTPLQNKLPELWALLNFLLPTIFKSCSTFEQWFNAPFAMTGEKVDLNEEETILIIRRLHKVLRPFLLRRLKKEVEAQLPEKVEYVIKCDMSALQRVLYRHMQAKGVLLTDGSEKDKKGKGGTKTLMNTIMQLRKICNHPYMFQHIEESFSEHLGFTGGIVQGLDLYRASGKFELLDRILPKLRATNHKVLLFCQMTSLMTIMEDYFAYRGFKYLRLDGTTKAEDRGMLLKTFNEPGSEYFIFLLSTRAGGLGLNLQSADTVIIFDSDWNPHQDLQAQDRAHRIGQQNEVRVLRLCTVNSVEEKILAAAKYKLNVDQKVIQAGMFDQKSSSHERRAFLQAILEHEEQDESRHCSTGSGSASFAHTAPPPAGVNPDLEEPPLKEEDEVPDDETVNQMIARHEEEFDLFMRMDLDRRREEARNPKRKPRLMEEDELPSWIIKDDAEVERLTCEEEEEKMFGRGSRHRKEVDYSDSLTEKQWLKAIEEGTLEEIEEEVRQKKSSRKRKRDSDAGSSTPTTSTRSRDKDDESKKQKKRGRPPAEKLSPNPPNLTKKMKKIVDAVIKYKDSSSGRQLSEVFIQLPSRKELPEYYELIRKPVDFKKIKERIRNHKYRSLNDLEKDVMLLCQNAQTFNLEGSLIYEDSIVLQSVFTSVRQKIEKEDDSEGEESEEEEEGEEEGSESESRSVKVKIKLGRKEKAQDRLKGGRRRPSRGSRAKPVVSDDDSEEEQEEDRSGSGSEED
test-summary: SMARCA4 Western blot degradation in MV4-11 cells
Format: cell-based
applied-conditions: MV4-11, MV4-11 cells, 24 h; read-out: SMARCA4 MSD MV411 degradation 24 h: average Dmax %
Exercise: state measured Dmax for each of the compounds provided.

For each listed entry, give its Dmax.
1. Cc1ncsc1-c1ccc(CNC(=O)[C@@H]2C[C@@H](O)CN2C(=O)[C@@H](NC(=O)N2CC3(CCC(N4CCC(c5cnc(N6CCN7c8cc(-c9ccccc9O)nnc8NC[C@H]7C6)nc5)CC4)CC3)C2)C(C)(C)C)cc1
2. C#Cc1ccc(CNC(=O)[C@@H]2C[C@@H](O)CN2C(=O)[C@@H](NC(=O)N2CC3(CC(N4CCC(N5CCC(N6CCc7[nH]c8nnc(-c9ccccc9O)cc8c7[C@H]6C)CC5)CC4)C3)C2)C(C)(C)C)c(OC)c1
3. C#Cc1ccc(CNC(=O)[C@@H]2C[C@@H](O)CN2C(=O)[C@@H](NC(=O)N2CCN(CC3CCN([C@H]4CC[C@H](N5CCN6c7cc(-c8ccccc8O)nnc7NC[C@H]6C5)CC4)CC3)CC2)C(C)(C)C)cc1
4. C#Cc1ccc(CNC(=O)[C@@H]2C[C@@H](O)CN2C(=O)[C@@H](NC(=O)C2CCC3(CC2)CC(N2CCC(N4CC(C(=O)N5CCN6c7cc(-c8ccccc8O)nnc7NC[C@H]6C5)C4)CC2)C3)C(C)(C)C)cc1 (some centres unmarked)
5. Cc1ncsc1-c1ccc(CNC(=O)[C@@H]2C[C@@H](O)CN2C(=O)[C@H](c2cc(N3CC4(CC(N5CCC(c6cnc(N7CCN8c9cc(-c%10ccccc%10O)nnc9NC[C@H]8C7)nc6)CC5)C4)C3)no2)C(C)C)cc1 (single isomer, unassigned)

["> 90%", "70 to 90%", "< 50%", "50 to 70%", "70 to 90%"]

For each listed entry, give its Dmax.
1. C#Cc1ccc(CNC(=O)[C@@H]2C[C@@H](O)CN2C(=O)[C@@H](NC(=O)N2CC3(CC(N4CCC(c5cnc(N6CCc7[nH]c8nnc(-c9ccccc9O)cc8c7[C@H]6C)nc5)CC4)C3)C2)C(C)(C)C)c(OCCCOC)c1
2. C#Cc1ccc(CNC(=O)[C@@H]2C[C@@H](O)CN2C(=O)[C@@H](N(CCN(C)C)C(=O)N2CC3(CC(N4CCC(c5cnc(N6CCc7[nH]c8nnc(-c9ccccc9O)cc8c7[C@H]6C)nc5)CC4)C3)C2)C(C)(C)C)cc1

["> 90%", "< 50%"]

Entry C#Cc1ccc(CNC(=O)[C@@H]2C[C@@H](O)CN2C(=O)[C@@H](NC(=O)N2CCN(C[C@H]3CC[C@@H](N4CCc5[nH]c6nnc(-c7ccccc7O)cc6c5[C@H]4C)CC3)CC2)C(C)(C)C)cc1 has what Dmax?
< 50%
